# System: Echinochloa crus-galli (ECHCG)
# METHOD NOTES: Post-emergence biological efficacy (Example 14)
# Assay type: in vivo
# EXPERIMENTAL PARAMETERS: Echinochloa crus-galli, 312 h; post-emergence, 1,000 g/ha, after 13 days; read-out: Percentage damage ECHCG
Label Satisfied when pest or weed control at 1000 g/ha is at or above 80%; otherwise label Not satisfied.

Decide: pest or weed control at 1000 g/ha of `C=Cc1c(NCc2ccccc2F)nc(-c2ccc(Cl)c(OC)c2F)nc1C(=O)OC` >= 80%? Not satisfied

Try `C/C=C/c1c(N)nc(-c2ccc(Cl)c(OC)c2F)nc1C(=O)OC` next. Satisfied

And what about the compound `C=Cc1c(N)nc(-c2ccc(Cl)nc2)nc1C(=O)OC` ? Not satisfied

Try this compound too: `C=Cc1c(NC2CCC2)nc(-c2ccc(Cl)c(OC)c2F)nc1C(=O)OC` Not satisfied

Thanks! And `C=Cc1c(NCc2ccccc2[N+](=O)[O-])nc(-c2ccc(Cl)c(OC)c2F)nc1C(=O)OC` ? Satisfied

Check `C=Cc1c(NCc2ccco2)nc(-c2ccc(Cl)c(OC)c2F)nc1C(=O)OCCOCC` too. Not satisfied

---

# Test system: Echinochloa crus-galli (ECHCG)
# METHOD NOTES: Post-emergence biological efficacy (Example 14)
# Type: in vivo
# EXPERIMENTAL PARAMETERS: Echinochloa crus-galli, 312 h; post-emergence, 1,000 g/ha, after 13 days; read-out: Percentage damage ECHCG
PARAMETER MEASURED: pest or weed control at 1000 g/ha (%)
Answers are plain numbers, in %.

Study these solved cases before continuing.
C=Cc1c(NCc2ccco2)nc(-c2ccc(Cl)c(OC)c2F)nc1C(=O)OC 80
C=Cc1c(NCc2ccco2)nc(-c2ccc(Cl)c(N(C)C)c2F)nc1C(=O)OC 80
C/C=C\c1c(N)nc(-c2ccc(Cl)c(N(C)C)c2F)nc1C(=O)OC 70

Now turn to the next compound.
Look at this compound and give its reported pest or weed control at 1000 g/ha. `C=Cc1c(NCc2ccco2)nc(-c2ccc(Cl)c(OC)c2F)nc1C(=O)O` 80

---

# Tested on: KCHSC Kochia scoparia
# METHOD NOTES: Post-emergence crop and weed test (Example 15)
# Assay type: in vivo
# EXPERIMENTAL PARAMETERS: Bassia scoparia, 360 h, 125 g/ha, after 15 days, read-out: Percentage damage KCHSC
PARAMETER MEASURED: pest or weed control at 125 g/ha (%)
Answers are plain numbers, in %.

List reported pest or weed control at 125 g/ha for each of these molecules:
1. C=Cc1c(NCc2ccco2)nc(C2CC2)nc1C(=O)OC [Ref. Ex. F, reference compound]
2. C/C=C/c1c(N)nc(C2CC2)nc1C(=O)OC [Ref. Ex. D, reference compound]
3. COC(=O)c1nc(-c2ccc(Cl)c(OC)c2F)nc(NCc2ccco2)c1Cl [Ref. Ex. E, reference compound]
4. C=Cc1c(NCc2ccco2)nc(-c2ccc(Cl)c(OC)c2F)nc1C(=O)OC
5. C/C=C/c1c(N)nc(-c2ccc(Cl)c(OC)c2F)nc1C(=O)OC
6. C=Cc1c(N)nc(-c2ccc(Cl)c(F)c2)nc1C(=O)OC

1. 30
2. 10
3. 90
4. 60
5. 80
6. 90
